Here is a set of compounds with reported pIC50 for Epidermal growth factor receptor (Mus musculus, UniProt Q01279), compiled from the literature.
Give bare numbers, as −log10 of the molar value.

See these solved cases before continuing.
Input: Request the reported pIC50 associated with O=CN/C=C/c1cc(O)ccc1O
Output: 5.95

Input: Item under review: O=Cc1cc(O)ccc1O . Reported pIC50?
Output: 3.62

Input: Would you mind telling me what pIC50 value was observed for O=C(O)c1cc(/N=C\c2cc(O)ccc2O)ccc1O ?
Output: 5.56

Could I get pIC50 for every one of these entries?
1. Nc1ccc(O)c(C(=O)O)c1
2. COc1cc2ncnc(Nc3ccc(F)c(Cl)c3)c2cc1NC(=O)/C=C/n1cc(F)c(=O)[nH]c1=O
3. CN(C(=O)Nc1ccccn1)C1CCCC1

Output:
1: 4.75; 2: 7.30; 3: 3.10
